The values you see were collected from PubChem BioAssay AID1445.

target: Aminopeptidase N (Plasmodium falciparum (isolate 3D7)) (UniProt O96935); assay: malaria alanyl aminopeptidase activity blockers – biochemical, fluorogenic H-Leu-NHMec substrate, 1536-well (AID 1445); conditions: recombinant M1AAP, H-Leu-NHMec fluorogenic kinetic assay; at 30 µM, hits give high values unless noted;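 note: plate controls were DMSO full reaction for no effect and no enzyme background for full effect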
Sequence (O96935 whole entry, looked up): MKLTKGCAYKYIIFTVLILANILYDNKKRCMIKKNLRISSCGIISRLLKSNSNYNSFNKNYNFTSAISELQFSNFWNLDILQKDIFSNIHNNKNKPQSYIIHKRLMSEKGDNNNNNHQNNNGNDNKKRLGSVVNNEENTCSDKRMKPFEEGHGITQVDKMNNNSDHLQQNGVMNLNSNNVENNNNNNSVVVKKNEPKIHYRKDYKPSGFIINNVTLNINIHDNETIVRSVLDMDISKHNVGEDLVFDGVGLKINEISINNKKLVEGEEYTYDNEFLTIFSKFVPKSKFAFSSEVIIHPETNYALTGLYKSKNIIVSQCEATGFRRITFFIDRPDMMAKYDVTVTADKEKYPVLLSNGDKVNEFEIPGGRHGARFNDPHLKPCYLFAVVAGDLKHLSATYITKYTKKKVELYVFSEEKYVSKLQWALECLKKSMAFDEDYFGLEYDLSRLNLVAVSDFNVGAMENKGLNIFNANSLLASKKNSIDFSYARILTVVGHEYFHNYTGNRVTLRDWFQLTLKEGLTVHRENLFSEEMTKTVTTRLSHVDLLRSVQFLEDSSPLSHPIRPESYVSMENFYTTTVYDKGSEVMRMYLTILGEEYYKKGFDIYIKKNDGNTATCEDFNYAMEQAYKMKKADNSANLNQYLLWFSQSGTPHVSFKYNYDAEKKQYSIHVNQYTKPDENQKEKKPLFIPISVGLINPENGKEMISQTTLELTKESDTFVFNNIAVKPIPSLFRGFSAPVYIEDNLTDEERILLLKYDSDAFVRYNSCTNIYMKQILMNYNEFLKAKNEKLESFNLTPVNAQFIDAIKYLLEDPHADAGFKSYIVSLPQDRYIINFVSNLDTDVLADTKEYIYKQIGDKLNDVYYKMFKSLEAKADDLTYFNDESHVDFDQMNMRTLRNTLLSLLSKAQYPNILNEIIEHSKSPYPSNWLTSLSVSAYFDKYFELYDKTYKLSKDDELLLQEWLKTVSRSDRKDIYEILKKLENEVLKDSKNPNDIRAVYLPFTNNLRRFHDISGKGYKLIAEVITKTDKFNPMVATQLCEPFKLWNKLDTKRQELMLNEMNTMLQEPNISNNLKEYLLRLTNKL
The campaign covered roughly 220,000 compounds. About 910 (0.41%) were called active. Shown is part of a subset that was picked to be rich in actives. Potency and affinity values are given separately.
readoutType: inhibition (%)
Express the result in % but write the number alone.

Answered cases to consult:
compound | inhibition, %
O=C(COc1ccc(Br)cc1)N1CCOCC1 | -2.69
CCN(CC)S(=O)(=O)c1ccc(-c2nnc(SC)o2)cc1 | -2.39
CC(C)Sc1nc2c(c(=O)n1C)SC(C)C2 (stereo unspecified) | 11.9
CS(=O)(=O)N(CC(=O)NCc1ccccc1Cl)C1CCCCC1 | -3.91
CCC(C)Sc1nc2c(c(=O)n1C)SC(C)C2 (stereo unspecified) | 23.5

# evaluate next
Input line: Given the entry CCc1nnc(NS(=O)(=O)c2ccc(NC(=S)NC(=O)c3ccc(Br)cc3)cc2)s1 , report its measured inhibition.
Output line: 21.6

---

target: Aminopeptidase N (Plasmodium falciparum (isolate 3D7)) (UniProt O96935); test: malaria alanyl aminopeptidase activity blockers – biochemical, fluorogenic H-Leu-NHMec substrate, 1536-well (AID 1445); conditions: recombinant M1AAP, H-Leu-NHMec fluorogenic kinetic assay; at 30 µM
Among all 220,000 compounds or so, about 910 (0.41%) were called active.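 Rule for the calls: active = primary inhibition above the hit cutoff, then over 50% inhibition at one or more dose response concentrations (cut at about 23% in these data, passing the limit was not always enough); inconclusive = conflicting primary data, or primary hits not chosen for dose response; inactive = low primary inhibition, or under 50% at every dose.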 The entries come from a sample that favours actives as a whole. Measured potencies and affinities stand elsewhere.
// one of class 1 = active, class 0 = inactive, no free text

Recorded results for 3 molecules are shown here.
molecule | labelValue
CCOC(=O)COc1ccc(Br)cc1C1NC(=O)NC(C)=C1C(=O)NCc1ccccc1 (centres undefined) | class 0
CCOc1cc(CNc2ccccc2)cc(Br)c1OCc1ccccc1F | class 0
COc1ccccc1NC(=O)c1cc([N+](=O)[O-])ccc1NCCN1C(=O)CCC1=O | class 0

Alright, here's another molecule for you.
Input line: Check the results log: what was the call for Cc1ccc(OCc2ccc(C(=O)Nc3nc4ccccc4n3Cc3ccccc3)o2)c([N+](=O)[O-])c1 ?
Output line: class 0

---

Entries and their inhibition
target: Aminopeptidase N (Plasmodium falciparum (isolate 3D7)) (UniProt O96935); experiment: malaria alanyl aminopeptidase activity blockers – biochemical, fluorogenic H-Leu-NHMec substrate, 1536-well (AID 1445); conditions: recombinant M1AAP, H-Leu-NHMec fluorogenic kinetic assay; at 30 µM, hits give high values unless noted;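 note: plate controls were DMSO full reaction for no effect and no enzyme background for full effect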
Among all 220,000 compounds or so, about 910 (0.41%) were called active. This excerpt belongs to a sample that is enriched for actives. Potency and affinity values are given separately.
Express the result in % but write the number alone.

inputSmiles | readoutType | measureUnit | readoutNumber
CCOP(=O)(OCC)c1nc(-c2ccc(Cl)cc2Cl)oc1N1CCCCC1 | inhibition | % | 10.7
COc1ccc(-c2nn(-c3ccccc3)cc2/C=C/C(=O)OCC(=O)Nc2cccc(C#N)c2)cc1 | inhibition | % | 0.99
CCOC(=O)c1c(-c2ccc(C)o2)csc1NC(=O)CSc1ncn[nH]1 | inhibition | % | 0.41
Cc1cc2cc(CCNC(=O)c3ccc(S(=O)(=O)N4CCOCC4)cc3)c(=O)[nH]c2cc1C | inhibition | % | 0.05

# evaluate next
Input line: Given the entry CCCc1[nH]nc2c1C1(CCN(C(=O)OCc3ccccc3)CC1)C(C#N)=C(N)O2 , report its measured inhibition.
Output line: 3.73

---

Entries and their inhibition
biological target: Aminopeptidase N (Plasmodium falciparum (isolate 3D7)) (UniProt O96935); assay: malaria alanyl aminopeptidase activity blockers – biochemical, fluorogenic H-Leu-NHMec substrate, 1536-well (AID 1445); conditions: recombinant M1AAP, H-Leu-NHMec fluorogenic kinetic assay; at 30 µM, hits give high values unless noted;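 note: plate controls were DMSO full reaction for no effect and no enzyme background for full effect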
In all, about 220,000 compounds went through this assay and about 910 (0.41%) were called active. Only a selection was taken, and actives are over-represented in it overall. Results with a measured potency or affinity are listed apart.
Express the result in % but write the number alone.

compound | inhibition / %
CS(=O)(=O)c1ccc(Cl)c(NC(=O)COC(=O)c2cccc(C#N)c2)c1 | 6.76
N#C/C(=C\c1ccc(-c2cccc(Cl)c2)o1)C(=O)Nc1cccc2cccnc12 | -0.58

Input line: Given the entry COCCCNc1ccc([N+](=O)[O-])cc1C(=O)Nc1cccc(C)n1 , report its measured inhibition.
Output line: 2.01

Input line: Given the entry Cc1cc(C)n(CC(=O)N/N=C/c2ccc([N+](=O)[O-])s2)n1 , report its measured inhibition.
Output line: 13.2

Input line: Given the entry COc1cc(/C=N/NC(=O)C(Cc2c[nH]c3ccccc23)NC(=O)OCC(C)C)cc([N+](=O)[O-])c1OCc1ccccc1 (configuration not stated) , report its measured inhibition.
Output line: 9.91

Input line: Given the entry CN(c1ccccc1C(=O)Nc1ccc(F)c(F)c1)S(C)(=O)=O , report its measured inhibition.
Output line: 0.14

Input line: Given the entry COC(=O)CSc1ncnc2scc(-c3ccccc3)c12 , report its measured inhibition.
Output line: 8.48

Input line: Given the entry Cc1cc(C(=O)N/N=C/c2cc(Cl)cc([N+](=O)[O-])c2O)c2ccccc2n1 , report its measured inhibition.
Output line: 30.4

---

target: Aminopeptidase N (Plasmodium falciparum (isolate 3D7)) (UniProt O96935); experiment: malaria alanyl aminopeptidase activity blockers – biochemical, fluorogenic H-Leu-NHMec substrate, 1536-well (AID 1445); conditions: recombinant M1AAP, H-Leu-NHMec fluorogenic kinetic assay; at 30 µM;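 note: plate controls were DMSO full reaction for no effect and no enzyme background for full effect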
The whole screen tested about 220,000 compounds, of which about 910 (0.41%) were called active.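 The calls were made as follows: active = primary inhibition above the hit cutoff, then over 50% inhibition at one or more dose response concentrations (cut at about 23% in these data, passing the limit was not always enough); inconclusive = conflicting primary data, or primary hits not chosen for dose response; inactive = low primary inhibition, or under 50% at every dose.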 The sample holds actives, similar compounds and a random draw of the others, so the mix is not that of the screen. Entries with a potency or affinity are not part of this list.
// one of 1 (active), -1 (inactive), no free text

Recorded results for 5 compounds are shown here.
compound | labelValue
O=C(C1CCC1)N1CCN(Cc2ccccc2)CC1 | -1
CN(CCc1ccccn1)C(=O)Nc1ccc(C(C)(C)C)cc1 | -1
COc1ccc(C(=O)N/N=C/c2c(CO)cnc(C)c2O)cc1 | -1
CC1CCN(CC(=O)Nc2cccc([N+](=O)[O-])c2)CC1 | -1
CC(=O)NC1CCN(CC(=O)Nc2cccc([N+](=O)[O-])c2)CC1 | -1

Input line: Check the results log: what was the call for FC(F)C(F)(F)C1=CC(c2cccs2)=NCCN1 ?
Output line: -1

Input line: Check the results log: what was the call for c1ccn2c(SCc3ccc4c(c3)OCO4)nnc2c1 ?
Output line: -1

Input line: Check the results log: what was the call for COc1cccc(N2CC(C)Cn3c2nc2c3c(=O)n(CCN3CCOCC3)c(=O)n2C)c1 (stereo not drawn) ?
Output line: -1

Input line: Check the results log: what was the call for Cc1cccc(NC(=S)NCCc2ccc3c(c2)OCCO3)c1C ?
Output line: -1

Input line: Check the results log: what was the call for C=CCn1c(-c2ccc(F)cc2)n[nH]c1=S ?
Output line: -1

Input line: Check the results log: what was the call for C=CCn1c(=O)c2c(nc3n2CC(C)CN3c2cccc(OC)c2)n(C)c1=O (stereo not drawn) ?
Output line: 1

Input line: Check the results log: what was the call for COc1ccc([N+](=O)[O-])cc1NC(=O)C(C)OC(=O)c1cccnc1 (stereo not drawn) ?
Output line: -1

Input line: Check the results log: what was the call for Cc1ccc(CN2CCN(C(=O)C3CCC3)CC2)cc1 ?
Output line: 1

Input line: Check the results log: what was the call for O=S(=O)(Nc1ncnc2sc3c(c12)CCC3)c1cc(F)ccc1F ?
Output line: -1

Input line: Check the results log: what was the call for COc1cc(C)c(S(=O)(=O)NC2CC(C)(C)NC(C)(C)C2)cc1C ?
Output line: -1

Input line: Check the results log: what was the call for CCOC(=O)C/C(C)=N\Nc1nc(-c2ccccc2)cs1 ?
Output line: -1

Input line: Check the results log: what was the call for COc1cccc(N2CC(O)Cn3c2nc2c3c(=O)n(CCCc3ccccc3)c(=O)n2C)c1 (stereo not drawn) ?
Output line: -1

Input line: Check the results log: what was the call for Cc1ncc(CO)c(/C=N/NC(=O)c2ccc(O)cc2)c1O ?
Output line: -1

Input line: Check the results log: what was the call for COc1cc(OC)cc(C2C(C#N)=C(N)Oc3n[nH]c(-c4cccnc4)c32)c1 (stereo not drawn) ?
Output line: -1

Input line: Check the results log: what was the call for O=S(=O)(Nc1ccc2c(c1)OCCO2)c1cccs1 ?
Output line: -1

Input line: Check the results log: what was the call for C/C(=N/NC(=O)CN1CCN(S(=O)(=O)c2ccc(Br)cc2)CC1)c1ccco1 ?
Output line: -1

Input line: Check the results log: what was the call for CC(c1ccccc1)N1C(=O)/C(=C/c2ccncc2)SC1=S (stereo not drawn) ?
Output line: -1

Input line: Check the results log: what was the call for CCOC(=O)CC(NC(C)=O)c1ccc([N+](=O)[O-])cc1 (stereo not drawn) ?
Output line: -1
